# reported Ratio IC50; entries follow
# Organism: Homo sapiens
# Procedure summary: Selectivity index, ratio of IC50 for recombinant human MAO-A to IC50 for recombinant human MAO-B
Measurement label: Ratio IC50

| Structure as smiles | Value reported |
| --- | --- |
| O=[N+]([O-])/C=C/c1cccc(OCc2cccc(Cl)c2)c1 | 34 |
| O=[N+]([O-])/C=C/c1cccc(OCc2ccc(C(F)(F)F)cc2)c1 | 62 |
| O=[N+]([O-])/C=C/c1cccc(OCc2cccc(F)c2)c1 | 41 |
| O=[N+]([O-])/C=C/c1cccc(OCc2ccc(F)cc2)c1 | 166 |
| Cc1cccc(COc2cccc(/C=C/[N+](=O)[O-])c2)c1 | 21 |
| O=[N+]([O-])/C=C/c1cccc(OCc2cccc(Br)c2)c1 | 25 |
| O=[N+]([O-])/C=C/c1cccc(OCc2ccccc2)c1 | 43 |
| Cc1ccc(COc2cccc(/C=C/[N+](=O)[O-])c2)cc1 | 49 |
| O=[N+]([O-])/C=C/c1cccc(OCc2cccc(C(F)(F)F)c2)c1 | 32 |
| O=[N+]([O-])/C=C/c1cccc(OCc2ccc(Cl)cc2)c1 | 53 |
